Data provenance is PubChem BioAssay (NCI).

system: SNB-19 CNS; assay: NCI tumour cell line growth inhibition, 48 h
quantity: TGI

Some solved cases for reference:
q: TGI of `O=C1/C(=C/c2ccccc2)CN(C(=O)CCN2CCC(=NO)CC2)C/C1=C\c1ccccc1` on SNB-19 CNS?
a: 4.06 µM

q: Repeat with `O=C(CC(=O)n1nc(-c2ccccc2)c(N=Nc2ccccc2Cl)c1-c1ccccc1)Nc1ccc(Cl)cc1`
a: > 100 µM

q: Now consider `CCCCCCCCCCc1c2nc(c(CCCCCCCCCC)c3ccc([nH]3)c(CCCCCCCCCC)c3ccc([nH]3)c(CCCCCCCCCC)c3nc1C=C3)C=C2` .
a: > 100 µM

q: Next up: Cc1cn(C2CC(OC3CCCCO3)C(CO)O2)c(=O)[nH]c1=O (stereo not given)
a: > 100 µM

q: Cool, now NNC1=Nc2ccc(Cl)cc2C(=S)N2CSCC12 (stereo not given)
a: > 100 µM

New cases:
q: Give SNB-19 CNS TGI for `CC(C)(C)/C(O)=C\c1nc2ccc(C(F)(F)F)cc2[nH]c1=O`
a: > 100 µM

====

tested on: HS 578T breast; assay: NCI tumour cell line growth inhibition, 48 h
Measured GI50 by item

Recorded results for 4 molecules are shown here.
q: What does the record list as GI50 for `O=C(c1ccc(Cl)c(Cl)c1)N1CCN(C(=O)c2ccc(Cl)c(Cl)c2)C1=S` ?
a: 29.1 µM

q: Item: `C[CH2][Sn]([CH2]C)([O]C(=O)c1ccccc1F)[O]C(=O)c1ccccc1F`
a: 42.2 µM

q: How about this molecule: `O=C(Cc1n[nH]c(=O)c2ccccc12)OCc1c(Cl)cccc1Cl`
a: 17.4 µM

q: How about this molecule: `C=CC(=O)N1CCN(CCCn2c(=O)c(-c3c(Cl)c(OC)cc(OC)c3Cl)cc3cnc(NC)nc32)CC1`
a: 2.25 µM

Attention now turns to another entry.
q: Fill blank: measured GI50 of the molecule `Nc1n[nH]c2cccc(C#Cc3cccc(NC(=O)c4ccc(N5CCOCC5)c(C(F)(F)F)c4)c3)c12` is ____.
a: 0.508 µM

====

Entries and their TGI values follow.
system: DMS 114 small cell lung; assay: NCI tumour cell line growth inhibition, 48 h
Numbers only; they are read as µM.

q: Enter reported TGI observed with DMS 114 small cell lung for `C[CH2][Sn]([CH2]C)([O]C(=O)c1ccccc1F)[O]C(=O)c1ccccc1F`
a: 43.1

New cases:
q: Report TGI for `Cc1cc(C(=O)NCCN(C)C)c2nc3ccccc3cc2c1` tested on DMS 114 small cell lung.
a: 4.12

q: And then O=S1c2ccccc2N=C(c2cccc3ccccc23)CC1c1cccc2ccccc12 (configuration not stated) , what is it?
a: 34.8

====

Below, each entry is listed with its recorded log10(TGI).
system: HOP-92 NSCLC; test: NCI tumour cell line growth inhibition, 48 h
The base-10 logarithm of TGI, taken with TGI in µM, is what appears here.

q: Which log10(TGI) reading was recorded for the compound `Oc1c(Br)cc(Br)c2ccc(Cn3cc(-c4ccc(C(F)(F)F)cc4)nn3)nc12` ?
a: 0.64

q: Item: COc1cc2c(c(O)c1OC)C(=O)C1CCC(=O)N1C2c1cccc2ccccc12 (centres undefined)
a: 1.95

***
q: Tell me the measured log10(TGI) of CC1CC[C@@]23CCC4(C)[C@@](C=CC5[C@@]6(C)CCC(=O)C(C)(C)C6CC[C@]54C)(OC2=O)[C@@H]3[C@H]1C (some centres undefined) , please.
a: 1.62

q: Next record, please: `Cc1ccc(N=C2SC(=S)N(CCC[N+](C)(C)C)C2=Nc2ccc(C)cc2)cc1`
a: 1.50

q: How about `COc1cc(C(c2c(O)c3ccccc3oc2=O)c2c(O)c3ccccc3oc2=O)ccc1O` ?
a: 1.53

q: Please give the result for `COc1cc(-c2nccn2-c2ccc3ccccc3c2)cc(OC)c1OC` too.
a: 1.50
